Hey, just so you know, these numbers are from PubChem BioAssay AID651815.

# MEASUREMENT TARGET: DNA dC->dU-editing enzyme APOBEC-3F (Homo sapiens)
# RUN DESCRIPTION: qHTS for inhibitors of Vif-A3F interactions: Cherry picks counterscreen; note: nearly all actives have a fitted effect of over 65% in size
# ASSAY CONTEXT: HeLa A3F-eYFP/Vif cells, eYFP fluorescence, 24 h; series mostly up to 46.1 µM
# Excerpt: The recent discovery and characterization of host restriction factors, which provide a potent defense to invading retroviruses, has provided new targets for antiviral drug development. […] In the presence of an inhibitor, it is expected that Vif will be unable to degrade A3G-eYFP and/or A3F-eYFP, resulting in an increase in yellow fluorescence. […]
The whole screen tested about 2,100 compounds, of which about 1,100 (52%) were called active. About 29% were inconclusive and are not listed. Calls come from the whole dose curve; as a rule, active = well fitted inhibition curve with a large enough effect; inconclusive = small, poorly fitted or top-dose-only effect; inactive = no such curve, though single readings can be large or run the other way. The set was probably picked from earlier hits. Some of the results follow.
Use one of these outcomes when replying: active, inactive

Recorded test outcome, item CN1/C(=C\C=C2C(=O)NC(=O)NC2=O)C(C)(C)c2ccccc21
active

Recorded test outcome, item CN1C(=O)C(=Cc2ccc(N3CCCCC3)o2)C(=O)N(C)C1=S
active

Recorded test outcome, item CC/C(=N\NC(=O)c1ccccc1O)c1c(O)n(Cc2ccccc2)c(=O)[nH]c1=O
active

Recorded test outcome, item COC(=O)C1=C(C)N(Cc2ccco2)C(=O)/C1=C\c1ccc(N(C)C)cc1
active

Recorded test outcome, item O=Cc1c(C(=O)O)n(Cc2ccc(Cl)cc2)c2ccccc12
active

Recorded test outcome, item CN(C)c1ccc(/C=C/C=C2/C(=O)NC(=O)N(c3ccccc3)C2=O)cc1
active

Recorded test outcome, item CC1=CC(=Cc2sc3ccccc3[n+]2C)C=C(C)O1
active

Recorded test outcome, item CCN(CC)c1ccc2c(cc1=O)[C@@H](NC)CCc1cc(OC)c(OC)c(OC)c1-2
active

Recorded test outcome, item CCN(CC)c1ccc(N=Cc2c(O)n(Cc3ccccc3)c(=O)[nH]c2=O)cc1
active

Recorded test outcome, item COc1ccccc1-n1c(/C=C/c2ccc(O)cc2)nc2ccccc2c1=O
inactive

Recorded test outcome, item CC(=O)OC1C2(CC3N4C(=O)C5(CO)SSC4(CC31O)C(=O)N5C)OC(C)C(C)(C)C2=O (stereo not drawn)
active

Recorded test outcome, item O=C1NC(=O)N(Cc2ccc(F)cc2)C(=O)/C1=C\C=C\c1ccco1
active

Recorded test outcome, item N#CC1=C(N)Oc2c(c(=O)sc3ccccc23)C1c1cccnc1 (stereo not drawn)
active

Recorded test outcome, item CC(C)c1ccc(N2C(=O)NC(=O)/C(=C/C=C/c3ccco3)C2=O)cc1
active

Recorded test outcome, item CCN(CC)c1ccc(C=C2C(=O)N(C)C(=S)N(C)C2=O)o1
active

Recorded test outcome, item COc1ccc(-n2c(/C=C/c3ccc(O)c(OC)c3)nc3ccccc3c2=O)cc1
active

Recorded test outcome, item CCCCn1c(O)c(C(=O)/C=C/c2c[nH]c3ccccc23)c(=O)[nH]c1=O
active

Recorded test outcome, item Cc1cc(/C=C2\C(=O)NC(=O)N(c3ccc(Br)cc3)C2=O)c(C)n1C
inactive
